# ASSAYED SYSTEM: MDM2-p53 interaction (Homo sapiens (Human), UniProt Q00987)
# Sequence (Q00987 whole entry): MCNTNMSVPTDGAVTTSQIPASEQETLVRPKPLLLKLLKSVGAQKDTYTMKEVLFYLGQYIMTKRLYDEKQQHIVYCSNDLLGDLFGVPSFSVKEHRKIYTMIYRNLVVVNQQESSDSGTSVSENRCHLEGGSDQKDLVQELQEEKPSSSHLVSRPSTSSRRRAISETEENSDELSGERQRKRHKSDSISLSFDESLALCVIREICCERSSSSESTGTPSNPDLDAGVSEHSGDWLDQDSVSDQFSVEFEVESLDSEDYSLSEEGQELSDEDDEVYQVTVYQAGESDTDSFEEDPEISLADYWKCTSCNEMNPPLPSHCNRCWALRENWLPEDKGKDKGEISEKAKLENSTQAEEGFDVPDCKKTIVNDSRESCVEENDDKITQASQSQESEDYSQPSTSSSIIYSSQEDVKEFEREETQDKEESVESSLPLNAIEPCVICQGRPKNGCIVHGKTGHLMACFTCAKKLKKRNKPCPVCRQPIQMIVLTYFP
# CONDITION: read-out: MDM2 % inhibition @0.0010
READOUT: inhibition at 0.001 µM (%)
Report only the number, with the unit % understood.

For orientation, consider the following solved cases.
COMPOUND: CCC(O)(c1cc(F)c2c(c1)C(=O)N(Cc1ncc(C#N)cn1)[C@@]2(OC[C@H]1C[C@H](O)C1)c1ccc(Cl)cc1)c1cn(C)cn1 (single isomer, unassigned) [Example 483]
READOUT: inhibition at 0.001 µM
UNIT TEXT: %
VALUE REPORTED: 58
//
COMPOUND: CCC(O)(c1cc(F)c2c(c1)C(=O)N(Cc1ccc(Cl)cn1)[C@@]2(OC[C@@H](C)O)c1ccc(Cl)cc1)C1(F)CCNCC1 (single isomer, unassigned) [Example 549]
READOUT: inhibition at 0.001 µM
UNIT TEXT: %
VALUE REPORTED: 85
//
COMPOUND: CN1CCC(C(C)(O)c2cc(F)c3c(c2)C(=O)N(Cc2ncc(Cl)cn2)[C@@]3(OCC2(CO)CC2)c2ccc(Cl)cc2)CC1 (single isomer, unassigned) [Example 554]
READOUT: inhibition at 0.001 µM
UNIT TEXT: %
VALUE REPORTED: 74
//
COMPOUND: CCC(O)(c1cc(F)c2c(c1)C(=O)N(Cc1ncc(Cl)cn1)[C@@]2(OC)c1ccc(Cl)cc1)C1(F)CCN(C2COC2)CC1 (single isomer, unassigned) [Example 552]
READOUT: inhibition at 0.001 µM
UNIT TEXT: %
VALUE REPORTED: 79

Kindly consider the entry below.
Query: If you can, please state the reported inhibition at 0.001 µM value of CCC(O)(c1cc(F)c2c(c1)C(=O)N(Cc1ncc(C#N)cn1)[C@@]2(OC)c1ccc(Cl)cc1)[C@H]1CC[C@H](O)CC1 (some centres unmarked) [Example 504] .
Reply: 71

---

# ASSAYED SYSTEM: MDM2-p53 interaction (Homo sapiens (Human))
# CONDITION: read-out: MDM2 % inhibition @0.030
Examples of compounds with documented inhibition at 0.03 µM follow.
Report only the number, with the unit % understood.

For orientation, consider the following solved cases.
COMPOUND: CCC(O)(c1cc(F)c2c(c1)C(=O)N(Cc1ccc(C#N)nc1)[C@@]2(O[C@H]1CCOC1)c1ccc(Cl)cc1)c1cn(C)cn1 (single isomer, unassigned)
inhibition at 0.03 µM / %: 45
//
COMPOUND: CCC(O)(c1cc(F)c2c(c1)C(=O)N(Cc1ncc(Cl)cn1)[C@@]2(O[C@H]1CCOC1)c1ccc(Cl)cc1)C1(F)CCNCC1 (single isomer, unassigned)
inhibition at 0.03 µM / %: 33

Kindly consider the entry below.
Query: If you can, please state the reported inhibition at 0.03 µM value of CCC(O)(c1cc(F)c2c(c1)C(=O)N(Cc1ncc(Cl)cn1)[C@@]2(OCC1(CO)CC1)c1ccc(Cl)cc1)c1cn(C)cn1 (single isomer, unassigned) .
Reply: 51

---

# ASSAYED SYSTEM: MDM2-p53 interaction (Homo sapiens (Human))
# CONDITION: read-out: MDM2 % inhibition @0.10
Examples of compounds with documented inhibition at 0.1 µM follow.
Report only the number, with the unit % understood.

For orientation, consider the following solved cases.
COMPOUND: CCC(O)(c1cc(F)c2c(c1)C(=O)N(Cc1ccc(C#N)cn1)[C@@]2(O[C@H]1CCOC1)c1ccc(Cl)cc1)c1ccn(C)n1 (single isomer, unassigned) [Example 335]
ASSAYED SYSTEM: MDM2-p53 interaction (Homo sapiens (Human))
UNIT TEXT: %
VALUE REPORTED: 51
//
COMPOUND: CCC(O)(c1cc(F)c2c(c1)C(=O)N(Cc1ncc(C#N)cn1)[C@@]2(OCC1(C#N)CC1)c1ccc(Cl)cc1)c1cn(C)cn1 (stereo partly drawn) [Example 463]
ASSAYED SYSTEM: MDM2-p53 interaction (Homo sapiens (Human))
UNIT TEXT: %
VALUE REPORTED: 73

Kindly consider the entry below.
Query: Tell me reported inhibition at 0.1 µM for CC[C@](O)(c1cc(F)c2c(c1)C(=O)N(Cc1ncc(Cl)cn1)[C@@]2(O[C@H]1CCOC1)c1ccc(Cl)cc1)C1CCN(C)CC1 [Example 567] , tested with MDM2-p53 interaction (Homo sapiens (Human)).
Reply: 57
